biological target: GSPT1 protein (Homo sapiens); construct: The whole cell lysate was prepared using a RIPA lysis buffer; endogenous in cells; host or cells: NB-4 cells; assay: Degradation of GSPT1 protein in NB-4 cells (Western blot); format: cell-based; conditions: NB-4 cells, compound 1 μM, 6 h; read-out: GSPT1 degradation
Sequence (P15170 whole entry): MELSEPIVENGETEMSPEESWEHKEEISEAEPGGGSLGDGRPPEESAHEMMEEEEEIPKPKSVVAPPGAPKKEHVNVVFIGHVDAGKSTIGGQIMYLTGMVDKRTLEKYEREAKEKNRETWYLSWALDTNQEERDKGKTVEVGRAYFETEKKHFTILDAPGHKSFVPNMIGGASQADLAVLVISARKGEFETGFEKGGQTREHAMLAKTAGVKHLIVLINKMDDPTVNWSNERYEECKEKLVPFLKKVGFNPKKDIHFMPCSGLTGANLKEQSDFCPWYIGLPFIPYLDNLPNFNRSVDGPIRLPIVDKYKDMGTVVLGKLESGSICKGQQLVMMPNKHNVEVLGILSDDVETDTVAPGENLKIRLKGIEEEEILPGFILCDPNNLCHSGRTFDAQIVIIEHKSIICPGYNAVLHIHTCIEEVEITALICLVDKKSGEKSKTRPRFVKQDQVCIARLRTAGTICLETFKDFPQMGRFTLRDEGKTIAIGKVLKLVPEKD
Listing: inhibition at 1 µM of selected compounds

INSERT INTO results (compound, measured_value) VALUES
  ('O=C(CCc1cccc(F)c1)NCc1ccc2c(c1F)CN(C1CCC(=O)NC1=O)C2=O (centres unmarked)', '> 80%'),
  ('N#Cc1cc(C(=O)NCc2ccc3c(c2Cl)CN(C2CCC(=O)NC2=O)C3=O)ccc1Cl (centres unmarked)', '< 25%'),
  ('Nc1cccc(C(=O)NCc2cc3c(cc2F)C(=O)N(C2CCC(=O)NC2=O)C3)c1 (centres unmarked)', '< 25%'),
  ('NCc1ccc2c(c1F)CN(C1CCC(=O)NC1=O)C2=O (centres unmarked)', '< 25%'),
  ('Cn1ccc2ccc(C(=O)NCc3cc4c(cc3F)C(=O)N(C3CCC(=O)NC3=O)C4)cc21 (centres unmarked)', '> 80%');

Please fill in: inhibition at 1 µM reported for Cc1ccc(C(=O)NCc2ccc3c(c2Cl)CN(C2CCC(=O)NC2=O)C3=O)cc1 (centres unmarked) = < 25%

Please fill in: inhibition at 1 µM reported for CCCc1ccc(C(=O)NCc2ccc3c(c2F)CN(C2CCC(=O)NC2=O)C3=O)cc1 (centres unmarked) = > 80%

Please fill in: inhibition at 1 µM reported for CC(C)(C)c1ccc(C(=O)NCc2ccc3c(c2F)CN(C2CCC(=O)NC2=O)C3=O)cc1 (centres unmarked) = > 80%

Please fill in: inhibition at 1 µM reported for O=C(Cc1c[nH]c2ccc(F)cc12)NCc1ccc2c(c1F)CN(C1CCC(=O)NC1=O)C2=O (centres unmarked) = 50 to 80%

Please fill in: inhibition at 1 µM reported for CC(C)OC(=O)N1C(=O)CCC(N2Cc3c(ccc(CNC(=O)c4ccc(Cl)cc4)c3F)C2=O)C1=O (centres unmarked) = < 25%

Please fill in: inhibition at 1 µM reported for O=C(C#Cc1cccc(O)c1)NCc1ccc2c(c1F)CN(C1CCC(=O)NC1=O)C2=O (centres unmarked) = > 80%

Please fill in: inhibition at 1 µM reported for COc1ccc(C(=O)NCc2ccc3c(c2F)CN(C2CCC(=O)NC2=O)C3=O)cc1OC (centres unmarked) = < 25%

Please fill in: inhibition at 1 µM reported for O=C1CCC(N2Cc3cc(CNC(=O)c4ccccc4)c(F)cc3C2=O)C(=O)N1 (centres unmarked) = < 25%

Please fill in: inhibition at 1 µM reported for O=C1CCC(N2Cc3c(ccc(CNCc4ccc(Cl)cc4)c3F)C2=O)C(=O)N1 (centres unmarked) = > 80%

Please fill in: inhibition at 1 µM reported for N#Cc1cc(C(=O)NCc2ccc3c(c2F)CN(C2CCC(=O)NC2=O)C3=O)ccc1Cl (centres unmarked) = < 25%

Please fill in: inhibition at 1 µM reported for O=C1CCC(N2Cc3cc(CNC(=O)c4ccc(Cl)c(O)c4)c(F)cc3C2=O)C(=O)N1 (centres unmarked) = > 80%

Please fill in: inhibition at 1 µM reported for O=C1CCC(N2Cc3cc(CNC(=O)c4ccc(O)cc4)c(F)cc3C2=O)C(=O)N1 (centres unmarked) = < 25%
